measured.quantity: CC50 (µM)
All answers are understood in µM, so give the number only.

With Huh-7 cells as the test system, O=c1nc(NO)ccn1[C@@H]1O[C@H](CO)[C@@H](O)[C@H]1O [NHC, β-D-N4-hydroxycytidine] showed CC50 of 59.1

----------
Assign CC50 to each entry below.
# experiment.notes: in vitro
# applied.conditions: African green monkey
All answers are understood in µM, so give the number only.

Reported CC50 of C=CCc1ccc(O)c(-c2ccc(O)c(CC=C)c2)c1 : 40.4

Reported CC50 of COC(=O)N[C@H](C(=O)N1CCC[C@H]1c1nc(-c2ccc(-c3ccc(-c4c[nH]c([C@@H]5CCCN5C(=O)[C@@H](NC(=O)OC)C(C)C)n4)cc3)cc2)c[nH]1)C(C)C : 50.6

Reported CC50 of CCCCCc1cc(O)c2c(c1)OC(C)(C)c1ccc(C)cc1-2 : 37.3

Reported CC50 of Cc1cc(C2=NO[C@@](c3cc(Cl)c(Cl)c(Cl)c3)(C(F)(F)F)C2)sc1C(=O)NCC(=O)NCC(F)(F)F : 44.3

----------
# experiment.notes: in vitro
# applied.conditions: human
measured.quantity: CC50 at 4 days

Reported CC50 at 4 days of NC(=O)c1nc(F)c[nH]c1=O [Favipiravir] : > 100 µM

Reported CC50 at 4 days of CC(c1cc2ccccc2s1)N(O)C(N)=O (stereo not drawn) [Zileuton] : > 100 µM

Reported CC50 at 4 days of N#C[C@@]1(c2ccc3c(N)ncnn23)O[C@H](CO)[C@@H](O)[C@H]1O [GS-441524] : > 100 µM

----------
Assign CC50 at 3 days to each entry below.
# experiment.notes: MTS cytotoxicity assay, Vero CCL-81 cells
# applied.conditions: African green monkey
Where a name gives a salt, the structure may show the parent alone.

Reported CC50 at 3 days of O=C(O)Cc1ccccc1Nc1c(Cl)cccc1Cl [Diclofenac sodium] : > 100 µM

Reported CC50 at 3 days of NC(N)=Nc1nc(CSCCC(N)=NS(N)(=O)=O)cs1 : > 100 µM

Reported CC50 at 3 days of Cc1cccc(Nc2ccccc2C(=O)O)c1C : > 100 µM

Reported CC50 at 3 days of CC(C)OC(=O)C(C)(C)Oc1ccc(C(=O)c2ccc(Cl)cc2)cc1 [Fenofibrate] : > 100 µM

Reported CC50 at 3 days of NC12CC3CC(CC(C3)C1)C2 : > 100 µM

Reported CC50 at 3 days of COCCCC/C(=N\OCCN)c1ccc(C(F)(F)F)cc1 [Fluvoxamine (maleate)] : 35.5 µM

Reported CC50 at 3 days of CN(C)CCC(c1ccc(Cl)cc1)c1ccccn1 (centres unmarked) [Chlorpheniramine maleate] : > 100 µM

Reported CC50 at 3 days of CN1CC[C@H](c2c(O)cc(O)c3c(=O)cc(-c4ccccc4Cl)oc23)[C@H](O)C1 : 0.031 µM

Reported CC50 at 3 days of COc1ccc2[nH]cc(CCNC(C)=O)c2c1 : > 100 µM

Reported CC50 at 3 days of C[C@H]1c2cccc(O)c2C(=O)C2=C(O)[C@]3(O)C(=O)C(C(N)=O)=C(O)[C@@H](N(C)C)[C@@H]3[C@@H](O)[C@@H]21 : ≥ 100 µM

Reported CC50 at 3 days of Cc1ccc(-c2cc(C(F)(F)F)nn2-c2ccc(S(N)(=O)=O)cc2)cc1 : 50 µM

----------
# experiment.notes: MTS cytotoxicity assay, Calu-3 cells
# applied.conditions: human
Assign CC50 at 3 days to each entry below.

Reported CC50 at 3 days of COCCCC/C(=N\OCCN)c1ccc(C(F)(F)F)cc1 [Fluvoxamine (maleate)] : > 100 µM

Reported CC50 at 3 days of Cc1cccc(Nc2ccccc2C(=O)O)c1C [Mefenamic acid] : > 100 µM

Reported CC50 at 3 days of CC(C)OC(=O)C(C)(C)Oc1ccc(C(=O)c2ccc(Cl)cc2)cc1 [Fenofibrate] : ≥ 100 µM

Reported CC50 at 3 days of Cc1ccc(-c2cc(C(F)(F)F)nn2-c2ccc(S(N)(=O)=O)cc2)cc1 [Celecoxib] : 70.5 µM

----------
# System: SARS-CoV-2 (hCoV-19/USA-WA1/2020) in Calu-3 cells
# experiment.notes: microbe, parasite or virus in culture
# Format: cell-based
# applied.conditions: Severe acute respiratory syndrome coronavirus 2, Calu-3; MOI 0.01, 72 h, 2% FBS; read-out: Calu-3 SARS-CoV-2 EC50
Assign log10 of EC50 to each entry below.
Heads up, the numbers here are log10 of EC50 in µM units.

Reported log10 of EC50 of CC(=O)Oc1ccccc1C(=O)Nc1ncc([N+](=O)[O-])s1 [Nitazoxanide] : 1.36

Reported log10 of EC50 of CCC(CC)COC(=O)[C@H](C)N[P@](=O)(OC[C@H]1O[C@@](C#N)(c2ccc3c(N)ncnn23)[C@H](O)[C@@H]1O)Oc1ccccc1 : -0.70

Reported log10 of EC50 of N#C[C@@]1(c2ccc3c(N)ncnn23)O[C@H](CO)[C@@H](O)[C@H]1O : -0.52

Reported log10 of EC50 of CC(C)C(=O)OC[C@H]1O[C@@H](n2ccc(NO)nc2=O)[C@H](O)[C@@H]1O : -0.40

Reported log10 of EC50 of Cc1ccc(-c2cc(C(F)(F)F)nn2-c2ccc(S(N)(=O)=O)cc2)cc1 : 0.48

----------
# experiment.notes: in vitro
# applied.conditions: human
measured.quantity: CC50

Reported CC50 of CC(C)(C)[C@H](NC(=O)C(F)(F)F)C(=O)N1C[C@H]2[C@@H]([C@H]1C(=O)N[C@H](C#N)C[C@@H]1CCNC1=O)C2(C)C : > 100 µM

----------
# System: SARS-CoV-2 (hCoV-19/USA-WA1/2020) in Caco-2 cells
# experiment.notes: microbe, parasite or virus in culture
# applied.conditions: Severe acute respiratory syndrome coronavirus 2, Caco-2, 72 h, read-out: Caco-2 SARS-CoV-2 EC50
Counter-ions that a name gives are not always drawn.
measured.quantity: EC50

With SARS-CoV-2 (hCoV-19/USA-WA1/2020) in Caco-2 cells as the test system, CC(=O)Oc1ccccc1C(=O)Nc1ncc([N+](=O)[O-])s1 [Nitazoxanide] showed EC50 of 4.4 µM

With SARS-CoV-2 (hCoV-19/USA-WA1/2020) in Caco-2 cells as the test system, N#C[C@@]1(c2ccc3c(N)ncnn23)O[C@H](CO)[C@@H](O)[C@H]1O showed EC50 of 0.08 µM

With SARS-CoV-2 (hCoV-19/USA-WA1/2020) in Caco-2 cells as the test system, COCCCC/C(=N\OCCN)c1ccc(C(F)(F)F)cc1 [Fluvoxamine (maleate)] showed EC50 of 17.9 µM

With SARS-CoV-2 (hCoV-19/USA-WA1/2020) in Caco-2 cells as the test system, Cc1cccc(/C=N/Nc2cc(N3CCOCC3)nc(OCCc3ccccn3)n2)c1 [Apilimod mesylate] showed EC50 of 85 µM

With SARS-CoV-2 (hCoV-19/USA-WA1/2020) in Caco-2 cells as the test system, O=c1c2ccccc2[se]n1-c1ccccc1 showed EC50 of > 100 µM

----------
Assign pEC50 to each entry below.
# System: SARS-CoV-2 (hCoV-19/USA-WA1/2020) in Caco-2 cells
# experiment.notes: microbe, parasite or virus in culture
# applied.conditions: Severe acute respiratory syndrome coronavirus 2, Caco-2, 72 h, read-out: Caco-2 SARS-CoV-2 EC50
Hey, just a heads up that pEC50 is the negative log base 10 of the concentration in molar.

Reported pEC50 of CC(C)C(=O)OC[C@H]1O[C@@H](n2ccc(NO)nc2=O)[C@H](O)[C@@H]1O [Molnupiravir (NHC), Molnupiravir] : 5.77

Reported pEC50 of Cc1ccc(-c2cc(C(F)(F)F)nn2-c2ccc(S(N)(=O)=O)cc2)cc1 [Celecoxib] : 6.15

Reported pEC50 of COC(=O)N[C@H](C(=O)N1CCC[C@H]1c1nc(-c2ccc(-c3ccc(-c4c[nH]c([C@@H]5CCCN5C(=O)[C@@H](NC(=O)OC)C(C)C)n4)cc3)cc2)c[nH]1)C(C)C [Daclatasvir] : 4.35

----------
# System: SARS-CoV-2 (hCoV-19/USA-WA1/2020) in Vero CCL-81 cells
# experiment.notes: microbe, parasite or virus in culture
# Type: cell-based
# applied.conditions: Severe acute respiratory syndrome coronavirus 2; Table 1 drugs; MOI 0.1, 48 h, 2% FBS; read-out: Vero CCL-81 SARS-CoV-2 EC50
Structures can show the parent of a compound that is named as a salt.
Assign pEC50 to each entry below.
Hey, just a heads up that pEC50 is the negative log base 10 of the concentration in molar.

Reported pEC50 of CCC(CC)COC(=O)[C@H](C)N[P@](=O)(OC[C@H]1O[C@@](C#N)(c2ccc3c(N)ncnn23)[C@H](O)[C@@H]1O)Oc1ccccc1 : 5.49

Reported pEC50 of CC(=O)Oc1ccccc1C(=O)Nc1ncc([N+](=O)[O-])s1 [Nitazoxanide] : 5.85

Reported pEC50 of COC(=O)N[C@H](C(=O)N1CCC[C@H]1c1nc(-c2ccc(-c3ccc(-c4c[nH]c([C@@H]5CCCN5C(=O)[C@@H](NC(=O)OC)C(C)C)n4)cc3)cc2)c[nH]1)C(C)C : 6.15

Reported pEC50 of NC(=O)c1nc(F)c[nH]c1=O : 4.04

Reported pEC50 of Cc1cccc(/C=N/Nc2cc(N3CCOCC3)nc(OCCc3ccccn3)n2)c1 [Apilimod mesylate] : 6.15

Reported pEC50 of CC(c1cc2ccccc2s1)N(O)C(N)=O (stereo not shown) : 5.17
